Tested on: COLO 205 colon
experimental-protocol: NCI tumour cell line growth inhibition, 48 h
recorded-metric: GI50

[[record]]
molecule = "O=C(Nc1cccnc1)c1cccs1"
value_observed = "3.08 µM"

[[record]]
molecule = "COC(=O)c1c2c(c[n+]([O-])c1C)C(=O)C(NCc1ccccc1)=CC2=O"
value_observed = "0.312 µM"

[[record]]
molecule = "O=C(/C=C\\c1cccc([N+](=O)[O-])c1)c1ccccc1"
value_observed = "2.04 µM"

[[record]]
molecule = "COc1cccc(C2=NN(C(C)=O)C(c3cc(OC)c(OC)c(OC)c3)C2)c1 (centres undefined)"
value_observed = "3.35 µM"

[[record]]
molecule = "Cn1c(=O)c(Sc2ccccc2F)cc2cnc(NC3CCOCC3)nc21"
value_observed = "> 25 µM"

[[record]]
molecule = "C=C1CCCC(C)(C)[C@@H]1CC/C(C)=C/Cn1c2cccc(=O)c-2nc2ccccc21"
value_observed = "23.8 µM"

[[record]]
molecule = "Nc1nn(C(=O)Nc2ccc(Cc3ccccc3)cc2)c2ccc(Cl)cc12"
value_observed = "1.92 µM"

[[record]]
molecule = "COc1cc(-c2nn(C)nc2-c2cc3ccccc3s2)cc(OC)c1OC"
value_observed = "0.082 µM"

[[record]]
molecule = "COc1ccc(S(=O)(=O)Nc2cc(/C=C\\c3cc(OC)c(OC)c(OC)c3)cc(OC)c2OC)cc1OC"
value_observed = "1.28 µM"

